The origin of these recorded values is patent US12054447B2.

- procedureDetails: Pharmacokinetics (PK) of AOH1160 in animals
- Assay type: in vivo, Rat
- studyConditions: rat, in vivo, po, 20 mg/kg, Rat PO 20 mg/kg, Single dosing

{"inputSmiles": "O=C(CNC(=O)c1cccc2ccccc12)Nc1ccccc1Oc1ccccc1", "u": "h", "Tmax": 3.3}

---

- Tested on: SK-MEL-2

{"inputSmiles": "O=C(CNC(=O)c1cccc2ccccc12)Nc1ccccc1Oc1ccc(O)cc1", "GI50, nM": 25100}
{"inputSmiles": "COc1ccc(Oc2ccccc2NC(=O)CNC(=O)c2cccc3ccccc23)cc1", "GI50, nM": 2290}
{"inputSmiles": "COc1cccc(Oc2ccccc2NC(=O)CNC(=O)c2cccc3ccccc23)c1", "GI50, nM": 182}
{"inputSmiles": "O=C(CNC(=O)c1cccc2ccccc12)Nc1ccccc1Oc1ccccc1", "GI50, nM": 269}
{"inputSmiles": "O=C(CNC(=O)c1cccc2ccccc12)Nc1ccccc1Oc1cccc(O)c1", "GI50, nM": 25100}

---

- procedureDetails: Pharmacokinetics (PK) of AOH1160 in animals
- Format: in vivo, Rat
- studyConditions: rat, in vivo, po, 20 mg/kg, Rat PO 20 mg/kg, BID dosing

{"compound": "O=C(CNC(=O)c1cccc2ccccc12)Nc1ccccc1Oc1ccccc1 [AOH1160]", "u": "ng/mL", "Cmax": 73}

---

- Tested on: U251
Binary label based on GI50 with cut-off 1000 nM: below gives y, not below gives n.

{"inputSmiles": "O=C(CNC(=O)c1cccc2ccccc12)Nc1ccccc1Oc1ccc(O)cc1", "testTarget": "U251", "classification": "n"}
{"inputSmiles": "O=C(CNC(=O)c1cccc2ccccc12)Nc1ccccc1Oc1ccccc1", "testTarget": "U251", "classification": "y"}
{"inputSmiles": "COc1ccc(Oc2ccccc2NC(=O)CNC(=O)c2cccc3ccccc23)cc1", "testTarget": "U251", "classification": "n"}
{"inputSmiles": "O=C(CNC(=O)c1cccc2ccccc12)Nc1ccccc1Oc1cccc(O)c1", "testTarget": "U251", "classification": "n"}
{"inputSmiles": "COc1cccc(Oc2ccccc2NC(=O)CNC(=O)c2cccc3ccccc23)c1", "testTarget": "U251", "classification": "y"}

---

Recorded below: GI50, system SF-268.
outcomeMeasure: GI50 (µM)

{"inputSmiles": "COc1ccc(Oc2ccccc2NC(=O)CNC(=O)c2cccc3ccccc23)cc1", "testTarget": "SF-268", "measurement": 2.04}
{"inputSmiles": "COc1cccc(Oc2ccccc2NC(=O)CNC(=O)c2cccc3ccccc23)c1", "testTarget": "SF-268", "measurement": 0.55}
{"inputSmiles": "O=C(CNC(=O)c1cccc2ccccc12)Nc1ccccc1Oc1ccc(O)cc1", "testTarget": "SF-268", "measurement": 3.31}
{"inputSmiles": "O=C(CNC(=O)c1cccc2ccccc12)Nc1ccccc1Oc1ccccc1", "testTarget": "SF-268", "measurement": 0.437}
{"inputSmiles": "O=C(CNC(=O)c1cccc2ccccc12)Nc1ccccc1Oc1cccc(O)c1", "testTarget": "SF-268", "measurement": 20.9}

---

Recorded below: GI50, system A498.

{"compound": "COc1cccc(Oc2ccccc2NC(=O)CNC(=O)c2cccc3ccccc23)c1 [PCNA7/ AOH1996]", "GI50 [nM]": 115}
{"compound": "COc1ccc(Oc2ccccc2NC(=O)CNC(=O)c2cccc3ccccc23)cc1 [PCNA6]", "GI50 [nM]": 562}
{"compound": "O=C(CNC(=O)c1cccc2ccccc12)Nc1ccccc1Oc1ccccc1 [AOH1160]", "GI50 [nM]": 257}
{"compound": "O=C(CNC(=O)c1cccc2ccccc12)Nc1ccccc1Oc1cccc(O)c1 [PCNA2]", "GI50 [nM]": 5130}
{"compound": "O=C(CNC(=O)c1cccc2ccccc12)Nc1ccccc1Oc1ccc(O)cc1 [PCNA1]", "GI50 [nM]": 1020}
